tested on: SK-MEL-28; assay: SRB colorimetric cell growth inhibition assay, SK-MEL-28; type: cell-based; conditions: Homo sapiens, SK-MEL-28, MEL-28; GI=growth inhibition; read-out: GI50 MEL-28
Sorting guide: entries reporting GI50 beneath 2 µM go in the satisfied pile, the rest go in the not satisfied pile.

# Compound, Qualitative Label
rows = [
    ("COc1cc(-c2c3c4cc(OC)c(O)cc4oc(=O)c3n3ccc4cc(O)c(OC)cc4c23)ccc1O [Compound 3, lamellarin D, reference compound]", "satisfied"),
    ("COc1cc(-c2c3c4cc(OC)c(O)cc4oc(=O)c3n3ccc4c([N+](=O)[O-])cccc4c23)ccc1O", "not satisfied"),
    ("COc1cc(-c2c3n(c4c(=O)oc5cc(OC(=O)c6cc(F)c(F)c(F)c6F)c(OC)cc5c24)CCc2c-3cc(OC)c(OC)c2OC(=O)c2cc(F)c(F)c(F)c2F)ccc1OC(=O)c1cc(F)c(F)c(F)c1F", "not satisfied"),
    ("COc1cc(-c2c3n(c4c(=O)oc5cc(N)c(OC)cc5c24)CCc2cc(OC)c(OC)cc2-3)ccc1N", "satisfied"),
    ("COc1cc(-c2c3c4cc(OC)c(OC(=O)[C@@H]5CCCN5)cc4oc(=O)c3n3ccc4c(OC(=O)[C@@H]5CCCN5)c(OC)c(OC)cc4c23)ccc1OC(=O)[C@@H]1CCCN1", "satisfied"),
    ("COc1cc(-c2c3c4cc(OC)c(OC(=O)[C@H](C)N)cc4oc(=O)c3n3ccc4cc(OC(=O)[C@H](C)N)c(OC)cc4c23)ccc1OC(=O)[C@H](C)N", "satisfied"),
    ("COc1cc(-c2c3c4cc(OC)c(OC(=O)[C@@H](N)CC(C)C)cc4oc(=O)c3n3ccc4c(OC(=O)[C@@H](N)CC(C)C)c(OC)c(OC)cc4c23)ccc1OC(=O)[C@@H](N)CC(C)C", "satisfied"),
    ("COc1cc(-c2c3n(c4c(=O)oc5cc(OC(=O)[C@H](C)N)c(OC)cc5c24)CCc2c-3cc(OC)c(OC)c2OC(=O)[C@H](C)N)ccc1OC(=O)[C@H](C)N", "not satisfied"),
    ("COc1cc(-c2c3n(c4c(=O)oc5cc(OC(=O)[C@@H](N)C(C)C)c(OC)cc5c24)CCc2c-3cc(OC)c(OC)c2OC(=O)[C@@H](N)C(C)C)ccc1OC(=O)[C@@H](N)C(C)C", "satisfied"),
    ("COc1cc(-c2c3c4cc(OC)c(OC(=O)[C@H](C)NC(=O)OC(C)(C)C)cc4oc(=O)c3n3ccc4c(OC(=O)[C@H](C)NC(=O)OC(C)(C)C)c(OC)c(OC)cc4c23)ccc1OC(=O)[C@H](C)NC(=O)OC(C)(C)C", "satisfied"),
    ("COc1cc(-c2c3c4cc(OC)c(OC(=O)[C@@H]5CCCN5)cc4oc(=O)c3n3ccc4cc(OC(=O)[C@@H]5CCCN5)c(OC)cc4c23)ccc1OC(=O)[C@@H]1CCCN1", "satisfied"),
]
